studyTarget: recombinant guanylate cyclase reporter cell line (Rattus norvegicus, UniProt P19686+P20595)
Construct: expressed in transfected cells
Sequence (P19686 whole entry): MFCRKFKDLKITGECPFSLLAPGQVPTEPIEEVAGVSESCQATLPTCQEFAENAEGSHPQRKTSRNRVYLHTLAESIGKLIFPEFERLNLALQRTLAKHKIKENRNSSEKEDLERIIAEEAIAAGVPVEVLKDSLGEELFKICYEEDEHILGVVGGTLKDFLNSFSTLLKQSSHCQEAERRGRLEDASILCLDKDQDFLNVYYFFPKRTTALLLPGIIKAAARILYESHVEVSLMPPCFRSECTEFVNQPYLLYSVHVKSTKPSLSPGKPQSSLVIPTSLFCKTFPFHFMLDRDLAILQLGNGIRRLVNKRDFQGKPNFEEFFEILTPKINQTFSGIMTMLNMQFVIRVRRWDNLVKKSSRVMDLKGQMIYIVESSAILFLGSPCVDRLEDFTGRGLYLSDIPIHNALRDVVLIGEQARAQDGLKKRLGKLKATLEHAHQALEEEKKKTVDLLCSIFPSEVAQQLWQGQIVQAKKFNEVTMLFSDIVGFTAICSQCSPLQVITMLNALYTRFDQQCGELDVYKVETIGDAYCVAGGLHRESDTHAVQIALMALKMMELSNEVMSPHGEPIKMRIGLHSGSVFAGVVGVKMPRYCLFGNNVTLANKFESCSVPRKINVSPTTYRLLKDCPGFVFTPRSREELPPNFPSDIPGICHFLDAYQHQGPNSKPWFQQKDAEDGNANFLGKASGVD
Sequence (P20595 whole entry): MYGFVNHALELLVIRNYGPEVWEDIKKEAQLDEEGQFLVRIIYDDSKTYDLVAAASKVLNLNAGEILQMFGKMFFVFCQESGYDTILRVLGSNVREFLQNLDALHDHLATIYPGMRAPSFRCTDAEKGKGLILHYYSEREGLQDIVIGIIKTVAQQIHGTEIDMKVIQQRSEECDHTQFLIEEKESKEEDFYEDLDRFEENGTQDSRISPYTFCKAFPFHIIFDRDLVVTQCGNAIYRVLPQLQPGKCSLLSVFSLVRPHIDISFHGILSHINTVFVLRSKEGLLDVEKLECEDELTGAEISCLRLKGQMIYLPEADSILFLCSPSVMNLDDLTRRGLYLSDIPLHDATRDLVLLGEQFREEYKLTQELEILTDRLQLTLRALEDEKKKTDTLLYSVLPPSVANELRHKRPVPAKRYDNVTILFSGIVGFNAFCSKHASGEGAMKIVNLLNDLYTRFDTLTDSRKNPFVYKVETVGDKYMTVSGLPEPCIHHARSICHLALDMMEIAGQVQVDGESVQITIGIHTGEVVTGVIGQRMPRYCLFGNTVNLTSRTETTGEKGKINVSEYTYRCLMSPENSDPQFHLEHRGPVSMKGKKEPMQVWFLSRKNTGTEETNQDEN
runDescription: Effect on a recombinant guanylate cyclase reporter cell line (B-2)
Format: cell-based
runConditions: MEC = minimum effective concentration, in some cases mean values for individual determinations
measurementType: MEC (µM)

Cc1nc2c(OCc3c(F)cccc3F)cccn2c1-c1nc(NC[C@@H](O)CO)c2c(n1)NC(=O)C2(C)C	3

P. Cc1nc2c(OCc3c(F)cccc3F)cccn2c1-c1nc(NCC(O)C(F)(F)F)c2c(n1)NC(=O)C2(C)C (racemic)
Q. Cc1nc2c(OCc3c(F)cccc3F)cccn2c1-c1nc2c(c(N[C@H]3CC[C@H](O)CC3)n1)C(C)(C)C(=O)N2
Which entry shows the lesser value of MEC here, P or Q ? Please identify the chosen entry by its label.
P

P. Cc1nc2c(OCc3c(F)ccc(F)c3F)cccn2c1-c1nc(N)c2c(n1)NC(=O)C2(C)C
Q. Cc1nc2c(OCc3c(F)ccc(F)c3F)cccn2c1-c1nc2c(c(C(N)=O)n1)C(C)(C)C(=O)N2
In the pair P and Q , the larger recorded MEC belongs to which? Answer with the label corresponding to your selection.
P

* * *

studyTarget: human phosphodiesterase 5 (PDE 5) (Homo sapiens, UniProt O76074)
pIC50: −log10 of the molar value. Structures can show the parent of a compound that is named as a salt.
measurementType: pIC50

Worked cases, answers included:
Cc1nc2c(OCc3c(F)ccc(F)c3F)cccn2c1-c1nc2c(c(C(=O)NCC(C)(N)C(F)(F)F)n1)C(C)(C)C(=O)N2 (racemic)	8.52
COCC(C)(N)CNc1nc(-c2c(C)nc3c(OCc4c(F)cccc4F)cccn23)nc2c1C(C)(C)C(=O)N2 (single isomer, unassigned; ent-4) [Example 46]	6.92
Cc1nc2c(OCc3c(F)ccc(F)c3F)cccn2c1-c1nc(NCC(C)(C)N)c2c(n1)NC(=O)C2(C)C [Example 31, formate]	8.92
Cc1nc2c(OCc3c(F)cccc3F)cccn2c1-c1nc2c(c(N3CCC[C@H]3CO)n1)C(C)(C)C(=O)N2	7.70

P. Cc1nc2c(OCc3c(F)ccc(F)c3F)cccn2c1-c1nc2c(c(C(=O)N3CCNCC3)n1)C(C)(C)C(=O)N2 [Example 64, trifluoroacetate]
Q. Cc1nc2c(OCc3c(F)cccc3F)cccn2c1-c1nc(NCCO)c2c(n1)NC(=O)C2(C)C [Example 24, trifluoroacetate]
Which of the two items, P and Q , has the greater recorded pIC50? Identify your pick by its label.
Q
(Q: 8.89, P: 7.55)

* * *

studyTarget: recombinant guanylate cyclase reporter cell line (Rattus norvegicus, UniProt P19686+P20595)
Construct: expressed in transfected cells
runDescription: Effect on a recombinant guanylate cyclase reporter cell line (B-2)
Format: cell-based
runConditions: MEC = minimum effective concentration, in some cases mean values for individual determinations
Where a name gives a salt, the structure may show the parent alone.
measurementType: MEC (µM)

Cc1nc2c(OCc3c(F)ccc(F)c3F)cccn2c1-c1nc2c(c(-c3cc[nH]n3)n1)C(C)(C)C(=O)N2	1

1. COCC(C)(N)CNc1nc(-c2c(C)nc3c(OCc4c(F)ccc(F)c4F)cccn23)nc2c1C(C)(C)C(=O)N2 (racemic) [Example 35, formate]
2. Cc1nc2c(OCc3c(F)ccc(F)c3F)cccn2c1-c1nc2c(c(C(=O)NCC(C)(C)N)n1)C(C)(C)C(=O)N2 [Example 58, trifluoroacetate]
Which has the higher MEC, 1 or 2 ? Lab note: record the label of whichever item you select.
2
(2: 3 µM, 1: 1 µM)

A. Cc1nc2c(OCc3c(F)cccc3F)cccn2c1-c1nc(NCC(C)(C)N)c2c(n1)NC(=O)C2(C)C(F)(F)F (racemic)
B. Cc1nc2c(OCc3c(F)cccc3F)cccn2c1-c1nc(NCCO)c2c(n1)NC(=O)C2(C)C [Example 24, trifluoroacetate]
Decide: A or B , by lowest recorded MEC. Label of pick, please.
A

A. Cc1nc2c(OCc3c(F)ccc(F)c3F)cccn2c1-c1nc(O)c2c(n1)NC(=O)C2(C)C
B. Cc1nc2c(OCc3c(F)cccc3F)cccn2c1-c1nc(N)c2c(n1)NC(=O)C2(C)C
Looking at A and B , which one comes out lower in MEC terms? Give the chosen item's label as your response.
B
(B: 0.3 µM, A: 3 µM)
